- TARGET: T1, TNFR1 (Homo sapiens, UniProt P19438)
- T1 chain: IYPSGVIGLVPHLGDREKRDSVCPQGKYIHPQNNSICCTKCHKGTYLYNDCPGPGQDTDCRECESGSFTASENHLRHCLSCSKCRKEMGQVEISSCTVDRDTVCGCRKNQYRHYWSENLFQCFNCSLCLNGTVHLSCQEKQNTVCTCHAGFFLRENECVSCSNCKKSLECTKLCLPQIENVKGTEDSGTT
- ASSAY PROCEDURE: yeast display SC50
One threshold, 8 nM, splits the recorded apparent Kd (screen) values: lower ones are TRUE, equal or higher ones are FALSE.

Query :: Strictly below 8 nM in apparent Kd (screen)? A35D (designed binder) SMEEEVEKAAKEYEKKKKEAIEKHLEKLKAKDKEDAERFLKELEEAAKEYAKDEAKTMSEEEAKRRAKKYKEKVLLSELSEEEQKEIKEAEEKLVRTILKYVEEAAK
Result :: TRUE

Query :: Strictly below 8 nM in apparent Kd (screen)? K88D (designed binder) SMEEEVEKAAKEYEKKKKEAIEKHLEKLKAKDKEAAERFLKELEEAAKEYAKDEAKTMSEEEAKRRAKKYKEKVLLSELSEEEQKEIDEAEEKLVRTILKYVEEAAK
Result :: TRUE

Query :: Strictly below 8 nM in apparent Kd (screen)? I21W (designed binder) SMEEEVEKAAKEYEKKKKEAWEKHLEKLKAKDKEAAERFLKELEEAAKEYAKDEAKTMSEEEAKRRAKKYKEKVLLSELSEEEQKEIKEAEEKLVRTILKYVEEAAK
Result :: TRUE

Query :: Strictly below 8 nM in apparent Kd (screen)? E92K (designed binder) SMEEEVEKAAKEYEKKKKEAIEKHLEKLKAKDKEAAERFLKELEEAAKEYAKDEAKTMSEEEAKRRAKKYKEKVLLSELSEEEQKEIKEAEKKLVRTILKYVEEAAK
Result :: FALSE

Query :: Strictly below 8 nM in apparent Kd (screen)? Y50F (designed binder) SMEEEVEKAAKEYEKKKKEAIEKHLEKLKAKDKEAAERFLKELEEAAKEFAKDEAKTMSEEEAKRRAKKYKEKVLLSELSEEEQKEIKEAEEKLVRTILKYVEEAAK
Result :: FALSE

Query :: Strictly below 8 nM in apparent Kd (screen)? V6W (designed binder) SMEEEWEKAAKEYEKKKKEAIEKHLEKLKAKDKEAAERFLKELEEAAKEYAKDEAKTMSEEEAKRRAKKYKEKVLLSELSEEEQKEIKEAEEKLVRTILKYVEEAAK
Result :: TRUE

Query :: Strictly below 8 nM in apparent Kd (screen)? K33I (designed binder) SMEEEVEKAAKEYEKKKKEAIEKHLEKLKAKDIEAAERFLKELEEAAKEYAKDEAKTMSEEEAKRRAKKYKEKVLLSELSEEEQKEIKEAEEKLVRTILKYVEEAAK
Result :: TRUE
